system: IGROV1 ovarian; test: NCI tumour cell line growth inhibition, 48 h
Item-by-item account of TGI
quantity: TGI (µM)

compound | relation_qualifier | endpoint_result
Cn1nc(-c2ccccc2)c(C(=O)/C=C/c2ccc(Cl)cc2)c(N2CCCCC2)c1=O | = | 4.95
COc1cc(C2SCC(=O)N2c2ccc(-n3c(-c4ccccc4)nc4ccccc4c3=O)cc2)cc(OC)c1OC (stereo unspecified) | > | 100
O=C1C=CC(=O)C12CCc1ccccc12 | > | 100
Nn1c(CCCCCCCCc2nnc(COc3ccc4ccccc4c3O)n2N)nnc1COc1ccc2ccccc2c1O | = | 38.3
C=C1C(=O)OC2C1CCC(C)C1C=CC(=O)C12C (stereo unspecified) | = | 19.4
CC(=O)OC[C@]1(C)CCCC2(C)C1CCC1C=C(C)[C@H]3CCC12C3 (stereo partly specified) | > | 100
COc1ccc(-c2cc(-c3ccc(Cl)cc3)nc(SCCCC(=O)NO)n2)cc1 | = | 3.56
NC[C@H]1Nc2ccccc2[C@@H](O)C1O (stereo partly specified) | > | 100
Cc1cc(=O)oc2c(C)c(O)ccc12 | > | 100
COc1ccc(NC([Se])=NC23CC4CC(CC(C4)C2)C3)cc1 | = | 7.7
COC(=O)c1cc2c3ccccc3n3c(=O)c4cc5ccccc5nc4c(n1)c23 | > | 100

* * *

This section presents molecules with their documented TGI values.
test system: NCI/ADR-RES ovarian; experiment: NCI tumour cell line growth inhibition, 48 h
quantity: TGI

molecule | measured_target | endpoint_result
C=C1C(=O)O[C@H]2[C@H]1CC/C(COC(=O)C(=O)c1cn(C)c3ccc(Cl)cc13)=C\CC[C@@]1(C)O[C@@H]21 | NCI/ADR-RES ovarian | 4.7 µM
CC(C)C[C@H](NC(=O)Cn1ccc(NCc2ccccc2)cc1=O)B(O)O | NCI/ADR-RES ovarian | > 100 µM
CN(C)CCCn1c(Cc2ccc(Cl)cc2)nc2cc(C(F)(F)F)ccc21 | NCI/ADR-RES ovarian | 33.6 µM
CC(C)(Oc1ccccc1)C(=O)Sc1c(-c2ccccc2)c(=O)n(-c2ccccc2)c(=S)n1-c1ccccc1 | NCI/ADR-RES ovarian | > 100 µM
CC(C)(C)OCC1NC(=O)[C@@H]2Cc3c([nH]c4ccccc34)C(c3ccccc3)N2C1=O (stereo not given in full) | NCI/ADR-RES ovarian | > 50 µM
Nc1nc(Cl)c(/C=N\O)c(NCC2(CO)CCC2)n1 | NCI/ADR-RES ovarian | > 100 µM
CC[C@@H]1C(=O)OC[C@@H]1Cc1cncn1C | NCI/ADR-RES ovarian | > 100 µM
CSC1=Nc2ccccc2-c2nc3ccccc3cc2C1 | NCI/ADR-RES ovarian | > 100 µM
O=C(O)CCCSc1ccccc1 | NCI/ADR-RES ovarian | > 100 µM
CCO/C=N\c1c(C#N)c(-c2ccc(Cl)cc2)cn1-c1ccc(C)cc1 | NCI/ADR-RES ovarian | > 100 µM

* * *

tested on: HS 578T breast; test: NCI tumour cell line growth inhibition, 48 h
So basically: TGI at 40 µM or higher? That is t. Lower than 40 µM? That is f.

compound | measured_target | classification
COC(=O)c1cc2c3ccccc3n3c(=O)c4cc5ccccc5nc4c(n1)c23 | HS 578T breast | t
COc1cc2ncn(-c3cc(O[C@@H](C)c4ccccc4Cl)c(C(N)=O)s3)c2cc1OC | HS 578T breast | f
O=C1c2ccccc2-c2oc(=O)c3ccccc3c21 | HS 578T breast | t
Cc1occc1C(=S)Nc1ccc(Cl)c(C(=O)OC(C(C)C)C(C)C)c1 | HS 578T breast | t
Cc1cc(C)nc(NS(=O)(=O)c2ccc(NNc3c4ccccc4nc4c(C(=O)Nc5ccc(S(N)(=O)=O)cc5)cccc34)cc2)n1 | HS 578T breast | t
CN(C)CCCn1c(Cc2ccc(Cl)cc2)nc2cc(C(F)(F)F)ccc21 | HS 578T breast | f
CO[C@@H]1C[C@H]2[C@@H]3CC[C@H]([C@@H](C)CO)[C@@]3(C)CC[C@@H]2[C@@]2(C)CC[C@H]3C[C@]312 | HS 578T breast | t
O=c1ccs[nH]1 | HS 578T breast | t
COc1ccc(/C(COc2ccc3c(=O)c(-c4ccccc4)coc3c2)=N\O)cc1 | HS 578T breast | t
CCCCCCCCCCCCCCCCCCN(C)C(COC)COP(=O)([O-])OCC[N+](C)(C)C (configuration not stated) | HS 578T breast | f
O=c1c2cc(-c3ccccc3)sc2nc2n1N=C(c1ccc(Cl)cc1)CS2 | HS 578T breast | t
Cc1ccc(NC2=C(Cl)C(=O)N(Cc3ccc(Cl)cc3)C2=O)cc1O | HS 578T breast | t
NC[C@H]1Nc2ccccc2[C@@H](O)C1O (some centres not stated) | HS 578T breast | t
O=C1c2ccccc2C(=O)N1CC1S(=O)(=O)OCCOS1(=O)=O | HS 578T breast | t

* * *

tested on: IGROV1 ovarian; experiment: NCI tumour cell line growth inhibition, 48 h
This listing pairs compounds with measured TGI.

compound | measured_target | TGI
CCC(C(=O)C(=O)C(CC)P1(=O)OC(C)(C)CN1C(C)(C)C)P1(=O)OC(C)(C)CN1C(C)(C)C (stereo unspecified) | IGROV1 ovarian | > 100 µM
N#CC1=C(N)Oc2c(ccc3ccccc23)C1c1ccccc1 (stereo unspecified) | IGROV1 ovarian | 16.9 µM
Nc1nc2c(c(=O)[nH]1)C(c1ccccc1)CC(=O)N2 (stereo unspecified) | IGROV1 ovarian | > 100 µM
O=[N+]([O-])c1ccc(N=Nc2c(O)ccc3ccccc23)c([N+](=O)[O-])c1 | IGROV1 ovarian | > 100 µM
COC(=O)c1ccc(NC(=O)O/N=C(\Cl)C(C)C)cc1 | IGROV1 ovarian | 27.6 µM
Cc1c(S(=O)(=O)O)ccc(N=Nc2c(O)c(C(=O)O)cc3ccccc23)c1Cl | IGROV1 ovarian | > 100 µM
O=C1/C(=C/c2ccc(OC(=O)c3ccccc3)cc2)CCC/C1=C\c1ccc(OC(=O)c2ccccc2)cc1 | IGROV1 ovarian | > 100 µM
Nc1c2c(c(O)c3c1=C(CO)C=N3)=NCCS2 | IGROV1 ovarian | 0.535 µM
Cc1ccc(/C(O)=C/c2nc3c(nc2NC24CC5CC(CC(C5)C2)C4)c(=O)oc2ccccc23)cc1 | IGROV1 ovarian | > 100 µM
O=C(c1ccccc1)c1c(-c2ccccc2)sc2nc3ccccc3nc12 | IGROV1 ovarian | > 100 µM
C[C@]12CCC(=O)C(O)=C1CC[C@@H]1C2CC[C@]2(C)NC(=O)CCC12 (stereo partly specified) | IGROV1 ovarian | > 100 µM
CCCN(CCC)c1ccc(/C=C/c2ccc3cc(OCC)ccc3n2)cc1 | IGROV1 ovarian | > 100 µM
CC1=C[C@]2(O)C(=O)[C@H](C)C[C@H]3[C@@H](CC[C@@](C)(O)/C=C\2C1=O)C3(C)C | IGROV1 ovarian | 53.1 µM
O=C(O)C1CCCCC1C(=O)Nn1cnnc1 (stereo unspecified) | IGROV1 ovarian | > 100 µM
COc1cccc2c1CCc1c(-c3ccc(F)cc3)cc(-c3ccc4ccccc4n3)nc1-2 | IGROV1 ovarian | > 100 µM
O=c1ccs[nH]1 | IGROV1 ovarian | 66.5 µM
N#Cc1c(=O)c2ccccc2n2c1[nH]c1ccccc12 | IGROV1 ovarian | > 100 µM
Cc1cc(C)c(S(=O)(=O)N2CCCN(S(=O)(=O)c3c(C)cc(C)cc3C)OCCCO2)c(C)c1 | IGROV1 ovarian | > 100 µM
COc1ccc(/C(=N\NC(=O)C(=O)NN)C(c2ccc(OC)cc2)C2(O)C(=O)Nc3ccccc32)cc1 (stereo unspecified) | IGROV1 ovarian | > 100 µM
COc1cc2nc(-c3cccs3)nc(N3CCN(c4ccccc4C(F)(F)F)CC3)c2cc1OC | IGROV1 ovarian | > 100 µM
CC[C@@H]1C(=O)OC[C@@H]1Cc1cncn1C | IGROV1 ovarian | > 100 µM

* * *

system: IGROV1 ovarian; assay: NCI tumour cell line growth inhibition, 48 h
# if value of TGI reaches 50 µM, tag label 1; if it stays below, tag label 0

compound | classification
C/C(=N\n1c(Cc2ccccc2)n[nH]c1=O)c1ccccc1 | label 1
C#CC1(OC(C)=O)CCC2C3CC=C4C=C(OC(C)=O)CCC4(C)C3CCC21C (stereo not given) | label 0
c1ccc(N=C(Nc2ccccc2)N2CCCC2)cc1 | label 1
NC1CCC(Nc2nc(NCc3ccc(-c4ccccc4O)nc3)c3ncn(C4CCCC4)c3n2)CC1 (stereo not given) | label 0
C[C@]12CC[C@@H]3c4cc(-c5ccc(F)cc5)c(O)cc4CC[C@H]3[C@@H]1CC[C@@H]2O | label 0
Clc1ccc(OCc2nnc(CCCCCCCCc3nnc(COc4ccc(Cl)cc4Cl)n3Nc3ccccc3)n2Nc2ccccc2)c(Cl)c1 | label 0
C1CSCCSCCSCCSC1 | label 1
CN1C/C(=C\c2cccs2)C2=NN(C)C(c3cccs3)C2C1 (stereo not given) | label 1
O=S(=O)(c1ccccc1)C(c1ccc2ccccc2n1)S(=O)(=O)c1ccccc1 | label 1
CCOC(=O)N1c2c(ccn2C)-c2ccn(C)c2N1C(=O)OCC | label 1
